Taken from patent US20150368338A1.

- SYSTEM UNDER TEST: T1, IFN-αWA (human, UniProt P05015 24-189)
- T1 construct: also called IFN-α16; alpha WA
- PROTOCOL NOTES: ProteOn, one antigen concentration
ENDPOINT LABEL: pKd
A value of pKd is the negative decimal logarithm of a concentration given in moles per litre.

Some solved cases for reference:
>>> assay_result("IFWM3352 (antibody, V domains shown, VH IFWH624, VL IFWL1013; converted mAb; also called IFWB3087) VH: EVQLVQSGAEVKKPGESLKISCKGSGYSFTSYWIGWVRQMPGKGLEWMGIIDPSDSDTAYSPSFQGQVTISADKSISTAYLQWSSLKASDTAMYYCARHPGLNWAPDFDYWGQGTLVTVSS VL: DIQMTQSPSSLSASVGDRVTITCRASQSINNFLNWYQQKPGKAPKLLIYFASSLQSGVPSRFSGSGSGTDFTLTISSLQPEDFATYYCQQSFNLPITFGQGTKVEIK")
10.06
>>> assay_result("IFWM3328 (antibody, V domains shown, VH IFWH591, VL IFWL1064; converted mAb; also called IFWB3063) VH: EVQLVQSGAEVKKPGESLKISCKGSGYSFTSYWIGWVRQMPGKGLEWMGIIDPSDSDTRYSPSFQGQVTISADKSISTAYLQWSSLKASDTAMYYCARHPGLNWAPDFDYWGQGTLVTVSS VL: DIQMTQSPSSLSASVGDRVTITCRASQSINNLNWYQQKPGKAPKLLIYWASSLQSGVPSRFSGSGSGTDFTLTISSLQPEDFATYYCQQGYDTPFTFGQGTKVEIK")
9.68
>>> assay_result("IFWM3342 (antibody, V domains shown, VH IFWH624, VL IFWL992; converted mAb; also called IFWB3077) VH: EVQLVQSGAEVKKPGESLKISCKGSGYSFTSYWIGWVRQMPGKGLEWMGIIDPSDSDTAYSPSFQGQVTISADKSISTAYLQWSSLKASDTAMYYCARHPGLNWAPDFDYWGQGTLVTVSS VL: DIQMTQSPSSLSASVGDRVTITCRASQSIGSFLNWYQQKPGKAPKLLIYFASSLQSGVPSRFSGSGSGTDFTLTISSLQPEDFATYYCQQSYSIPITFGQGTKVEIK")
10.02

Prompt: Output measured pKd for this item: IFWM3351 (antibody, V domains shown, VH IFWH624, VL IFWL1010; converted mAb; also called IFWB3086) VH: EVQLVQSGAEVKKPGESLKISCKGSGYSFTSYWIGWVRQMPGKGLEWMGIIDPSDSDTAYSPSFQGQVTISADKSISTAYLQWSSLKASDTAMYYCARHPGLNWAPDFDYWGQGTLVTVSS VL: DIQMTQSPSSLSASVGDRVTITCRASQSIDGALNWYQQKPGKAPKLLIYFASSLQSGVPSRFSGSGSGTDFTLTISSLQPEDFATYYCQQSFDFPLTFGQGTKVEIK
Completion: 10.48

Prompt: Output measured pKd for this item: IFWM3353 (antibody, V domains shown, VH IFWH624, VL IFWL1014; converted mAb; also called IFWB3088) VH: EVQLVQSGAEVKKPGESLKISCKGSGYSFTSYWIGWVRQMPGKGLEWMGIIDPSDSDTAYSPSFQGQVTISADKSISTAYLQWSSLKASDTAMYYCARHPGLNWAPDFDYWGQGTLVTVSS VL: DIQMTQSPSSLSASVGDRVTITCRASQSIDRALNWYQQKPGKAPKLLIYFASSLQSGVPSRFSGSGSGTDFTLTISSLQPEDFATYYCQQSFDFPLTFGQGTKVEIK
Completion: 10.51

Prompt: Output measured pKd for this item: IFWM3307 (antibody, V domains shown, VH IFWH591, VL IFWL1001; converted mAb; also called IFWB3042) VH: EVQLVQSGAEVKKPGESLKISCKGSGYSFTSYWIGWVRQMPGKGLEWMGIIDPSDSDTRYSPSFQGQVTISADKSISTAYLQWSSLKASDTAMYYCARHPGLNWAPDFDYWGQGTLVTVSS VL: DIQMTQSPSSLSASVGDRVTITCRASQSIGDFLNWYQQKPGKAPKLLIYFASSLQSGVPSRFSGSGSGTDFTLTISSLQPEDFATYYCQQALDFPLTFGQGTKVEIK
Completion: 9.79
